test-system: RNP (ribonucleoprotein)
method: AtheNA, Ab 6.25 ug/ml
Catalogue of Athena reading (relative luminescence units) readings, one per entry.
measured-attribute: Athena reading (relative luminescence units)

{"binder": "CH240_4A/293i (antibody, from a related filing, V domains shown) VH: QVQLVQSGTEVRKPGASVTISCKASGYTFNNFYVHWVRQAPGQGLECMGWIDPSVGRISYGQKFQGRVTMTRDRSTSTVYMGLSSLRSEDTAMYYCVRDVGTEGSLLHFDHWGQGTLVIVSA VL: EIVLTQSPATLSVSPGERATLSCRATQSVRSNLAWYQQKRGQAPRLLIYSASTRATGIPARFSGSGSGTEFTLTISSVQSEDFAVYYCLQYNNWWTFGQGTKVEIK", "result-number": 6}
{"binder": "CH236_4A/293i (antibody, from a related filing, V domains shown) VH: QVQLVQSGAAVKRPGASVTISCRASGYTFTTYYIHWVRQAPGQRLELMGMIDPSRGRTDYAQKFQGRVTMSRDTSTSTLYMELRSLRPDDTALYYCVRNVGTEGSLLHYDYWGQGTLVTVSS VL: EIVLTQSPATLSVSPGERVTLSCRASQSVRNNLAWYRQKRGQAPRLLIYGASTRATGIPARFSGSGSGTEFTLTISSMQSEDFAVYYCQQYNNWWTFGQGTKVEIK", "result-number": 40}
{"binder": "CH239_4A/293i (antibody, from a related filing, V domains shown) VH: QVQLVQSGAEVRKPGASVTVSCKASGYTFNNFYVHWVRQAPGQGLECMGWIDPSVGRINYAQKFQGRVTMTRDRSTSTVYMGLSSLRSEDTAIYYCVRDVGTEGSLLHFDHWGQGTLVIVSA VL: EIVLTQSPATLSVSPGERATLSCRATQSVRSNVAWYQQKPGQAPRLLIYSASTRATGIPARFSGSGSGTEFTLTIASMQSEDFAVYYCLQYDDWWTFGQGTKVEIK", "result-number": 78}
{"binder": "CH235_4A (antibody, from a related filing, V domains shown) VH: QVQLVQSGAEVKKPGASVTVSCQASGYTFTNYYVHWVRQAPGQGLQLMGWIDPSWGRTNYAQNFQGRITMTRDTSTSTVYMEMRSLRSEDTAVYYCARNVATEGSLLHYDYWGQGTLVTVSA VL: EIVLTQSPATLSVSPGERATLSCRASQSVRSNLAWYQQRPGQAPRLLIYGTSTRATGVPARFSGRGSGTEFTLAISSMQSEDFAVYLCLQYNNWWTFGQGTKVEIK", "result-number": 3}
{"binder": "CH241 (antibody, from a related filing, V domains shown) VH: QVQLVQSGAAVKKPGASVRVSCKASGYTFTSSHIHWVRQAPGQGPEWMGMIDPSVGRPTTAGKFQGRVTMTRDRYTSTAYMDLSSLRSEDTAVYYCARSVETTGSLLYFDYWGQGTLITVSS VL: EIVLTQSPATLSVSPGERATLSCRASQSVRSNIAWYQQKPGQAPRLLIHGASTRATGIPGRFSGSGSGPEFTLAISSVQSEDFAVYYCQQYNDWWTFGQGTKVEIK", "result-number": 3}
